Recorded HLM [% QH] by entry
MEASUREMENT PROTOCOL: Metabolic (microsomal) stability assay, human liver microsomes
Assay type: in vitro ADME
SETTINGS: predicted clearance as percent of liver blood flow; human liver microsomes 1 mg/mL, 1 μM compound, 37° C.

INSERT INTO measurements (molecule, observed) VALUES
  ('CN1CCC(COc2ccc(Oc3ccnc4c(F)cncc34)cc2)C1=O (centres unmarked) [I-035]', '<24 % QH'),
  ('CN(C)C(=O)Cn1cc(-c2ccc(Oc3ccnc4c(F)cncc34)cc2)cn1 [I-039]', '<24 % QH'),
  ('c1cc2nccc(Oc3ccc(N4CCOCC4)cc3)c2cn1 [I-030]', '<24 % QH'),
  ('CN(CCO)C(=O)[C@H]1CCN(c2ccc(Oc3ccnc4c(Cl)cncc34)cc2)C1 [I-010]', '50 % QH');

Here is the next item to consider.
Memo: CN(CCO)C(=O)[C@@H]1CCN(c2ccc(Oc3ccnc4c(F)cncc34)cc2)C1 [I-020] , reported HLM [% QH]: <24 % QH

----------
MEASUREMENT PROTOCOL: Metabolic (microsomal) stability assay, mouse liver microsomes
Assay type: in vitro ADME
SETTINGS: predicted clearance as percent of liver blood flow; mouse liver microsomes 0.5 mg/mL, 1 μM compound, 37° C.
MEASURED METRIC: MLM [% QH]

INSERT INTO assay_data (compound, observed) VALUES
  ('CN(C)C(=O)Cn1cc(-c2ccc(Oc3ccnc4c(F)cncc34)cc2)cn1 [I-039]', '26 % QH'),
  ('CN1CCC(COc2ccc(Oc3ccnc4c(F)cncc34)cc2)C1=O (stereo not drawn) [I-035]', '<24 % QH');

Here is the next item to consider.
Memo: CN(C)C(=O)[C@@H]1CCN(c2ccc(Oc3ccnc4c(F)cncc34)cc2)C1 [I-019] , reported MLM [% QH]: 28 % QH

----------
MEASUREMENT PROTOCOL: Metabolic (microsomal) stability assay, human liver microsomes
Format: in vitro ADME
SETTINGS: predicted clearance as percent of liver blood flow; human liver microsomes 1 mg/mL, 1 μM compound, 37° C.
Recorded HLM [% QH] by entry
Answer with a number only, understood to be in % QH.

Here are 4 compounds together with their reported answers.
INSERT INTO measurements (smiles_code, observed) VALUES
  ('CN(C)C(=O)C1CN(c2ccc(Oc3ccnc4c(F)cncc34)cc2)C1', 27),
  ('CC(=O)N1CCN(c2ccc(Oc3ccnc4ccncc34)cc2)CC1', 28),
  ('O=C([C@H]1CCN(c2ccc(Oc3ccnc4c(Cl)cncc34)cc2)C1)N1CCOCC1', 44),
  ('Fc1cncc2c(Oc3ccc(N4CCn5ccnc5C4)cc3)ccnc12', 29);

Memo: CN(C)C(=O)[C@@H]1CCN(c2ccc(Oc3ccnc4c(Cl)cncc34)cc2)C1 , reported HLM [% QH]: 30

----------
MEASUREMENT PROTOCOL: Metabolic (microsomal) stability assay, mouse liver microsomes
Type: in vitro ADME
SETTINGS: predicted clearance as percent of liver blood flow; mouse liver microsomes 0.5 mg/mL, 1 μM compound, 37° C.
Description: Metabolic (Microsomal) Stability Assay The metabolic degradation of the test compound is assayed at 37° C. with pooled liver microsomes (mouse (MLM), rat (RLM) or human (HLM)). […] Additionally, the NADPH-independent degradation is monitored in incubations without NADPH, terminated at the last time point by addition of acetonitril. […] In vitro intrinsic clearance (CLint,in vitro) is calculated from the time course of the disappearance of the test drug during the microsomal incubation. […]
MEASURED METRIC: MLM [% QH]

Here are 4 molecules together with their reported answers.
INSERT INTO measurements (molecule, observed) VALUES
  ('CN(C)C(=O)Cn1cc(-c2ccc(Oc3ccnc4c(Cl)cncc34)cc2)cn1 [I-043]', '25 % QH'),
  ('CN(C)C(=O)[C@H]1CCN(c2ccc(Oc3ccnc4c(Cl)cncc34)cc2)C1 [I-007]', '49 % QH'),
  ('CN(CCO)C(=O)[C@@H]1CCN(c2ccc(Oc3ccnc4c(F)cncc34)cc2)C1 [I-020]', '<24 % QH'),
  ('O=C1CCCN1CCOc1ccc(Oc2ccnc3c(F)cncc23)cc1 [I-037]', '<24 % QH');

Memo: CC(=O)N1CCN(c2ccc(Oc3ccnc4ccncc34)cc2)CC1 [I-031] , reported MLM [% QH]: 42 % QH

Memo: CN(C)C(=O)C1CN(c2ccc(Oc3ccnc4c(F)cncc34)cc2)C1 [I-032] , reported MLM [% QH]: <24 % QH

Memo: CC(=O)N[C@@H]1CCN(c2ccc(Oc3ccnc4c(F)cncc34)cc2)C1 [I-026] , reported MLM [% QH]: <24 % QH

Memo: CN(C)C(=O)[C@@H]1CCN(c2ccc(Oc3ccnc4c(Cl)cncc34)cc2)C1 [I-018] , reported MLM [% QH]: 44 % QH

Memo: CC(=O)N[C@H]1CCN(c2ccc(Oc3ccnc4c(F)cncc34)cc2)C1 [I-023] , reported MLM [% QH]: <24 % QH

Memo: c1cc2nccc(Oc3ccc(N4CCOCC4)cc3)c2cn1 [I-030] , reported MLM [% QH]: 58 % QH

Memo: O=C([C@H]1CCN(c2ccc(Oc3ccnc4c(Cl)cncc34)cc2)C1)N1CCOCC1 [I-013] , reported MLM [% QH]: 59 % QH

Memo: N[C@H]1CCN(c2ccc(Oc3ccnc4c(F)cncc34)cc2)C1 [I-022] , reported MLM [% QH]: <24 % QH

Memo: CN(CCO)C(=O)[C@H]1CCN(c2ccc(Oc3ccnc4c(F)cncc34)cc2)C1 [I-017] , reported MLM [% QH]: <24 % QH

Memo: CN(C)C(=O)CCOc1ccc(Oc2ccnc3c(F)cncc23)cc1 [I-036] , reported MLM [% QH]: <24 % QH

Memo: CN(C)C(=O)Cn1cc(-c2ccc(Oc3ccnc4ccncc34)cc2)cn1 [I-040] , reported MLM [% QH]: 45 % QH

Memo: CN(C)C(=O)[C@H]1CCN(c2ccc(Oc3ccnc4c(F)cncc34)cc2)C1 [I-015] , reported MLM [% QH]: <24 % QH

Memo: CN(CCO)C(=O)[C@H]1CCN(c2ccc(Oc3ccnc4c(Cl)cncc34)cc2)C1 [I-010] , reported MLM [% QH]: 57 % QH

Memo: Fc1cncc2c(Oc3ccc(N4CCn5ccnc5C4)cc3)ccnc12 [I-029] , reported MLM [% QH]: 36 % QH

Memo: CC(=O)N(C)[C@H]1CCN(c2ccc(Oc3ccnc4c(F)cncc34)cc2)C1 [I-024] , reported MLM [% QH]: <24 % QH
